# method-notes: Protein binding in human serum (size exclusion spin columns)
# cond: 37 °C, incubation time 60 min, n = 3
What Protein binding (%) was measured for each of the following?
Give bare numbers, in %.

Count: 3. Required value per item: Protein binding (%).
1. CCCC(=O)NC1CCCN(O)C(=O)C=C(C)CCOC(=O)C(NC(C)=O)CCCN(O)C(=O)C=C(C)CCOC(=O)C(NC(C)=O)CCCN(O)C(=O)C=C(C)CCOC1=O (stereo not shown) (68Ga complex, metal not drawn) [DABuFC, diacetylbutanoyl(FSC)]
2. CCC(=O)NC1CCCN(O)C(=O)C=C(C)CCOC(=O)C(NC(=O)CC)CCCN(O)C(=O)C=C(C)CCOC(=O)C(NC(=O)CC)CCCN(O)C(=O)C=C(C)CCOC1=O (stereo not shown) (68Ga complex, metal not drawn) [TPFC, tripropanoyl(FSC)]
3. CC1=CC(=O)N(O)CCCC(NC(=O)CCC(=O)O)C(=O)OCCC(C)=CC(=O)N(O)CCCC(NC(=O)CCC(=O)O)C(=O)OCCC(C)=CC(=O)N(O)CCCC(NC(=O)CCC(=O)O)C(=O)OCC1 (stereo not shown) (68Ga complex, metal not drawn) [FSC(suc)3, trisuccinyl(FSC)]

[2.92, 3.39, 2.96]

Look up Protein binding (%) for this molecule: CC(=O)NC1CCCN(O)C(=O)C=C(C)CCOC(=O)C(NC(C)=O)CCCN(O)C(=O)C=C(C)CCOC(=O)C(NC(C)=O)CCCN(O)C(=O)C=C(C)CCOC1=O (stereo not shown) (68Ga complex, metal not drawn) [TAFC, triacetylfusarinine C]
3.55

* * *

# method-notes: Stability in PBS pH 7.4 (RP-HPLC, %RCP)
# cond: PBS pH 7.4, 37 °C, 120 min, n = 3
What Stability in PBS (%) was measured for each of the following?
Numbers only, in %.

• CCC(=O)NC1CCCN(O)C(=O)C=C(C)CCOC(=O)C(NC(=O)CC)CCCN(O)C(=O)C=C(C)CCOC(=O)C(NC(=O)CC)CCCN(O)C(=O)C=C(C)CCOC1=O (stereo not shown) (68Ga complex, metal not drawn) [TPFC, tripropanoyl(FSC)] = 99.79
• CCCC(=O)NC1CCCN(O)C(=O)C=C(C)CCOC(=O)C(NC(C)=O)CCCN(O)C(=O)C=C(C)CCOC(=O)C(NC(C)=O)CCCN(O)C(=O)C=C(C)CCOC1=O (stereo not shown) (68Ga complex, metal not drawn) [DABuFC, diacetylbutanoyl(FSC)] = 99.79
• CC1=CC(=O)N(O)CCCC(NC(=O)CCC(=O)O)C(=O)OCCC(C)=CC(=O)N(O)CCCC(NC(=O)CCC(=O)O)C(=O)OCCC(C)=CC(=O)N(O)CCCC(NC(=O)CCC(=O)O)C(=O)OCC1 (stereo not shown) (68Ga complex, metal not drawn) [FSC(suc)3, trisuccinyl(FSC)] = 99.72

Lab note: next compound to report on.
Look up Stability in PBS (%) for this compound: CC(=O)NC1CCCN(O)C(=O)C=C(C)CCOC(=O)C(NC(C)=O)CCCN(O)C(=O)C=C(C)CCOC(=O)C(NC(C)=O)CCCN(O)C(=O)C=C(C)CCOC1=O (stereo not shown) (68Ga complex, metal not drawn) [TAFC, triacetylfusarinine C]
99.73

* * *

# method-notes: Protein binding in human serum (size exclusion spin columns)
# cond: 37 °C, incubation time 120 min, n = 3
# Description: At selected time points, 25 μl of serum aliquots was applied on size exclusion spin columns MicroSpin™ G-50 (GE Healthcare, Vienna, Austria). Columns were centrifuged at 2000 rcf for 2 min to separate protein bound radiotracer (eluate) from non-protein bound radiotracer (column). Protein binding ability was determined by measuring activities of column and eluate in the gamma counter.
metric: Protein binding (%)
Give bare numbers, in %.

Below: 2 compounds and their reported Protein binding (%).
- CC1=CC(=O)N(O)CCCC(NC(=O)CCC(=O)O)C(=O)OCCC(C)=CC(=O)N(O)CCCC(NC(=O)CCC(=O)O)C(=O)OCCC(C)=CC(=O)N(O)CCCC(NC(=O)CCC(=O)O)C(=O)OCC1 (stereo not shown) (68Ga complex, metal not drawn) [FSC(suc)3, trisuccinyl(FSC)]: 2.60
- CCCC(=O)NC1CCCN(O)C(=O)C=C(C)CCOC(=O)C(NC(C)=O)CCCN(O)C(=O)C=C(C)CCOC(=O)C(NC(C)=O)CCCN(O)C(=O)C=C(C)CCOC1=O (stereo not shown) (68Ga complex, metal not drawn) [DABuFC, diacetylbutanoyl(FSC)]: 3.61

Count: 2. Required value per item: Protein binding (%).
1. CCC(=O)NC1CCCN(O)C(=O)C=C(C)CCOC(=O)C(NC(=O)CC)CCCN(O)C(=O)C=C(C)CCOC(=O)C(NC(=O)CC)CCCN(O)C(=O)C=C(C)CCOC1=O (stereo not shown) (68Ga complex, metal not drawn) [TPFC, tripropanoyl(FSC)]
2. CC(=O)NC1CCCN(O)C(=O)C=C(C)CCOC(=O)C(NC(C)=O)CCCN(O)C(=O)C=C(C)CCOC(=O)C(NC(C)=O)CCCN(O)C(=O)C=C(C)CCOC1=O (stereo not shown) (68Ga complex, metal not drawn) [TAFC, triacetylfusarinine C]

1. 2.65
2. 2.96
